Assay: PAMPA (parallel artificial membrane permeability assay)
Format: in vitro ADME
Details: PAMPA; membrane permeation rate (Pe); 50 mM MOPSO buffer pH 6.5 with 5.0% glycocholic acid, 37° C., 18 hours; read-out: iPAMPA Pe
Positions of bridges follow the written chain, without caps; N, C: chain ends. Non-standard residues stand in square brackets, D forms with d. Residues, ends and D or L forms follow the SMILES beside them. *: point of attachment. NMeF = CN[C@@H](Cc1ccccc1)C(=O)O; NMeI = CC[C@H](C)[C@H](NC)C(=O)O; NMeL = CN[C@@H](CC(C)C)C(=O)O; NMeV = CN[C@H](C(=O)O)C(C)C; NMeS = CN[C@@H](CO)C(=O)O; NMeA = CN[C@@H](C)C(=O)O; Piperidide = C1CCN(*)CC1; β3hA = C[C@H](N)CC(=O)O; Abu = CC[C@H](N)C(=O)O; Sar = CNCC(=O)O; tBu = CC(C)(C)*
quantityName: Papp at 18 hours, 50 µM (×10⁻⁶ cm/s)
# value in ×10⁻⁶ cm/s; strip the unit string

Q. Answer with the recorded Papp at 18 hours, 50 µM of CC[C@H](C)[C@H]1C(=O)N[C@H](C(=O)N2CCCCC2)CC(=O)N[C@H](C(C)C)C(=O)N(C)[C@@H](Cc2ccccc2)C(=O)N(C)[C@@H](CC(C)C)C(=O)N[C@@H]([C@@H](C)O)C(=O)N(C)CC(=O)N(C)[C@@H](CC(C)C)C(=O)N[C@@H](COC(C)(C)C)C(=O)N1C [DP-265] ([dV][NMeF][NMeL]T[Sar][NMeL]S(tBu)[NMeI]D-Piperidide; lactam N-9) only.
A. 42

Q. For CC[C@H](C)[C@@H]1NC(=O)[C@H](C)N(C)C(=O)C[C@@H](C(=O)N2CCCCC2)NC(=O)[C@H](Cc2ccccc2)NC(=O)[C@H](CC(C)C)N(C)C(=O)[C@H](C(C)C)N(C)C(=O)[C@H](C)N(C)C(=O)[C@H]([C@@H](C)O)NC(=O)[C@H](Cc2ccccc2)N(C)C(=O)[C@H](C)N(C)C(=O)[C@H](CC(C)C)N(C)C1=O [DP-481] ([NMeA]I[NMeL][NMeA][NMeF]T[NMeA][NMeV][NMeL]FD-Piperidide; lactam N-11) , write its Papp at 18 hours, 50 µM.
A. 31

Q. Input CC[C@@H]1NC(=O)[C@H](CC(C)C)N(C)C(=O)[C@H](CC(C)C)NC(=O)[C@H](CC(C)C)N(C)C(=O)CN(C)C(=O)C[C@H](C)NC(=O)[C@H](CO)N(C)C(=O)[C@H](CC(C)C)N(C)C(=O)[C@H](CC(C)C)N(C)C(=O)[C@H](CC(C)C)N(C)C(=O)[C@@H](CC(C)C)NC1=O [DP-641] (cyclo([Abu][dL][NMeL][NMeL][NMeL][NMeS][β3hA][Sar][NMeL]L[NMeL])) , output reported Papp at 18 hours, 50 µM.
A. 46

* * *

Assay: Metabolic stability in mouse hepatic microsome
Format: in vitro ADME
Conditions: Table 9, thioether versus sulfoxide
Positions of bridges follow the written chain, without caps; N, C: chain ends. Non-standard residues stand in square brackets, D forms with d. Residues, ends and D or L forms follow the SMILES beside them. ξ: configuration not given here. *: point of attachment. NMeF = CN[C@@H](Cc1ccccc1)C(=O)O; NMeI = CC[C@H](C)[C@H](NC)C(=O)O; NMeL = CN[C@@H](CC(C)C)C(=O)O; NMeA = CN[C@@H](C)C(=O)O; Piperidide = C1CCN(*)CC1; ξC = NC(CS)C(=O)O; Sar = CNCC(=O)O; tBu = CC(C)(C)*
quantityName: Mouse Hepatic Microsome CLh, int
State the value, then name its unit.

Q. Using known records, supply Mouse Hepatic Microsome CLh, int for CC[C@H](C)[C@H]1C(=O)NC(C(=O)N2CCCCC2)CSCC(=O)N(C)[C@@H](Cc2ccccc2)C(=O)N(C)[C@@H](C)C(=O)N(C)[C@@H](Cc2ccccc2)C(=O)N(C)[C@@H](CC(C)C)C(=O)N[C@@H]([C@@H](C)O)C(=O)N(C)CC(=O)N(C)[C@@H](CC(C)C)C(=O)N[C@@H](COC(C)(C)C)C(=O)N1C (stereo partly shown) [Compound P-112] ({CH2CO}-[NMeF][NMeA][NMeF][NMeL]T[Sar][NMeL]S(tBu)[NMeI][ξC]-Piperidide; thioether N-10)
A. 30.4 ul/min/mg Protein

* * *

Experiment: Metabolic stability in human hepatic microsome
Assay type: in vitro ADME
Conditions: human, microsomes, pH 7.4, CL NADPH(+)
Starred links: 1 amine or outer side, 2 acyl side, 3 side chain; linkers in the order of their positions; H or OH if unused. Positions of bridges follow the written chain, without caps; N, C: chain ends. Non-standard residues stand in square brackets, D forms with d. Residues, ends and D or L forms follow the SMILES beside them. *: point of attachment. NMePhe(3-Cl) = CN[C@@H](Cc1cccc(Cl)c1)C(=O)O; NMeF = CN[C@@H](Cc1ccccc1)C(=O)O; NMeI = CC[C@H](C)[C@H](NC)C(=O)O; NMeβAla = CN(CCC(=O)[*:2])[*:1]; NMeL = CN[C@@H](CC(C)C)C(=O)O; NMeV = CN[C@H](C(=O)O)C(C)C; NMeA = CN[C@@H](C)C(=O)O; Piperidide = C1CCN(*)CC1; dNMeA = CN[C@H](C)C(=O)O; β3hA = C[C@H](N)CC(=O)O; Sar = CNCC(=O)O; tBu = CC(C)(C)*
quantityName: log10 microsomal CLint at 1 uM (log10 of the value in µL/min/mg)
Field: value | Transform: log10 | Quantity: microsomal CLint at 1 uM | Unit: µL/min/mg

Q. Please look at this compound and report its log10 microsomal CLint at 1 uM: CC[C@H](C)[C@H]1C(=O)N[C@@H](COC(C)(C)C)C(=O)N[C@@H](C)CC(=O)N(C)[C@@H](C)C(=O)N(C)[C@@H](Cc2ccccc2)C(=O)N(C)CC(=O)N(C)[C@@H](CC(C)C)C(=O)N[C@@H]([C@@H](C)O)C(=O)N(C)[C@@H](C)C(=O)N(C)[C@@H](CC(C)C)C(=O)N1C [DP-779] (cyclo([NMeA][NMeF][Sar][NMeL]T[NMeA][NMeL][NMeI]S(tBu)[β3hA]))
A. 1.89

Q. Hello, please tell me recorded log10 microsomal CLint at 1 uM for this one: C=C1CCC(=O)N(C)[C@@H](Cc2ccccc2)C(=O)N(C)CC(=O)N(C)[C@@H](CC(C)C)C(=O)N[C@@H]([C@@H](C)O)C(=O)N(C)[C@@H](C)C(=O)N(C)[C@@H](CC(C)C)C(=O)N(C)[C@@H]([C@@H](C)CC)C(=O)N[C@@H](COC(C)(C)C)C(=O)N[C@H](C(=O)N2CCCCC2)Cc2cccc1c2 [DP-831]
A. 2.83

Q. Identify measured log10 microsomal CLint at 1 uM associated with CC[C@H](C)[C@@H]1NC(=O)[C@H](CC(C)C)N(C)C(=O)[C@H](CC(C)C)N(C)C(=O)[C@H](C)NC(=O)[C@H](CC(C)C)N(C)C(=O)[C@H](Cc2ccccc2)NC(=O)[C@H]([C@@H](C)O)NC(=O)[C@H](CC(C)C)N(C)C(=O)[C@H](CC(C)C)N(C)C(=O)[C@H](C)N(C)C(=O)C[C@H](C)NC1=O [DP-772] (cyclo(A[NMeL][NMeL]I[β3hA][NMeA][NMeL][NMeL]TF[NMeL]))
A. 2.18

Q. Quick one: give measured log10 microsomal CLint at 1 uM for CC[C@H](C)[C@H]1C(=O)N[C@H](C(=O)N2CCCCC2)CC(=O)N(C)CCC(=O)N(C)[C@@H](Cc2ccccc2)C(=O)N(C)[C@@H](CC(C)C)C(=O)N[C@@H]([C@@H](C)O)C(=O)N(C)CC(=O)N(C)[C@@H](CC(C)C)C(=O)N[C@@H](COC(C)(C)C)C(=O)N1C [DP-155] ([NMeβAla][NMeF][NMeL]T[Sar][NMeL]S(tBu)[NMeI]D-Piperidide; lactam N-9)
A. 2.00

Q. Given the compound CC(C)C[C@H]1C(=O)N[C@@H](Cc2ccccc2)C(=O)N(C)[C@@H](C(C)C)C(=O)N[C@@H]([C@@H](C)O)C(=O)N[C@H](C(=O)N(C)[C@@H](Cc2ccccc2)C(=O)N(C)[C@@H](Cc2ccccc2)C(=O)N[C@@H](C)C(=O)N2CCCCC2)CC(=O)N(C)CCC(=O)N[C@@H](C(C)C)C(=O)N(C)[C@@H](CC(C)C)C(=O)N(C)[C@@H](Cc2ccccc2)C(=O)NCC(=O)N1C [DP-298] ([NMeβAla]V[NMeL][NMeF]G[NMeL]F[NMeV]TD[NMeF][NMeF]A-Piperidide; lactam N-10) , write its reported log10 microsomal CLint at 1 uM.
A. 1.59

Q. Hello, please tell me recorded log10 microsomal CLint at 1 uM for this one: CC[C@H](C)[C@H](NC(=O)[C@H](CC(C)C)N(C)C(=O)[C@@H](NC(=O)[C@@H]1CC(=O)N[C@@H](C)C(=O)N[C@@H](CC(C)C)C(=O)N[C@@H]([C@@H](C)O)C(=O)N(C)[C@@H](Cc2ccccc2)C(=O)N[C@@H](Cc2ccccc2)C(=O)N(C)[C@@H](C)C(=O)N1)C(C)C)C(=O)N1CCCCC1 [DP-46] (ALT[NMeF]F[NMeA]DV[NMeL]I-Piperidide; lactam N-7)
A. 2.40

Q. Please give measured log10 microsomal CLint at 1 uM of the following entry: CC[C@H](C)[C@H]1C(=O)NCC(=O)N(C)[C@@H](Cc2cccc(Cl)c2)C(=O)N[C@@H]([C@@H](C)O)C(=O)N(C)[C@@H](CC(C)C)C(=O)N[C@@H](CC(C)C)C(=O)N[C@@H](C)CC(=O)N(C)[C@H](C)C(=O)N(C)[C@@H](CC(C)C)C(=O)N[C@@H](Cc2ccccc2)C(=O)N(C)[C@@H](CC(C)C)C(=O)N[C@@H](C(C)C)C(=O)N1C [DP-762] (cyclo(F[NMeL]V[NMeI]G[NMePhe(3-Cl)]T[NMeL]L[β3hA][dNMeA][NMeL]))
A. 1.91

Q. Provide log10 microsomal CLint at 1 uM value for the following compound: CC(C)C[C@H]1C(=O)N[C@H](C(=O)N(C)[C@@H](Cc2ccccc2)C(=O)N[C@@H](C)C(=O)N2CCCCC2)CC(=O)N(C)[C@@H](C)C(=O)N[C@@H](Cc2ccccc2)C(=O)N(C)[C@@H](C(C)C)C(=O)N(C)[C@@H](C)C(=O)N[C@@H]([C@@H](C)O)C(=O)N(C)[C@@H](C)C(=O)N(C)[C@@H](CC(C)C)C(=O)N[C@@H](C)C(=O)N1C [DP-296] ([NMeA]F[NMeV][NMeA]T[NMeA][NMeL]A[NMeL]D[NMeF]A-Piperidide; lactam N-10)
A. 1.81

Q. Give the measured log10 microsomal CLint at 1 uM for CC[C@H](C)[C@@H]1NC(=O)[C@H](C)NC(=O)C[C@@H](C(=O)N2CCCCC2)NC(=O)[C@H](Cc2ccccc2)NC(=O)[C@H](C(C)C)NC(=O)[C@H](CC(C)C)NC(=O)[C@H](C)NC(=O)[C@H](Cc2ccccc2)N(C)C(=O)[C@H]([C@@H](C)O)NC(=O)[C@H](CC(C)C)NC(=O)[C@H](CC(C)C)N(C)C1=O [DP-13] (AI[NMeL]LT[NMeF]ALVFD-Piperidide; lactam N-11)
A. 1.82

Q. Provide one value: measured log10 microsomal CLint at 1 uM of CC[C@H](C)[C@H]1C(=O)N[C@@H](COC(C)(C)C)C(=O)N(C)[C@@H](Cc2ccccc2)C(=O)N(C)[C@@H](C(C)C)C(=O)N[C@@H](C)CC(=O)N(C)[C@@H](C)C(=O)N(C)[C@@H](Cc2ccccc2)C(=O)N[C@@H](CC(C)C)C(=O)N(C)[C@@H](CC(C)C)C(=O)N[C@@H]([C@@H](C)O)C(=O)N(C)CC(=O)N1C [DP-771] (cyclo(L[NMeL]T[Sar][NMeI]S(tBu)[NMeF][NMeV][β3hA][NMeA][NMeF]))
A. 2.36

From: patent US9409952B2
